- PROTOCOL: endothelial E-selectin expression blockers – imaging, HUVEC, immunofluorescence, MLSMR starter and 10KST1 sets, primary screen (AID 487);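 also: 100% = median nuclei count of all wells on the same plate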
- EXPERIMENTAL_PARAMETERS: HUVEC TNFalpha-induced E-selectin immunofluorescence imaging, at 2 µM; measured here: cell number, toxicity
MEASURED_PROPERTY: nuclei count (%)
State the answer as a number, implicitly in %.

Name the recorded nuclei count of the compound listed here: CN(C)C(=O)N1CCN(C(=O)c2ccco2)CC1
114

Name the recorded nuclei count of the compound listed here: C=C(C)Cn1c(N2CCN(CC)CC2)nc2c1c(=O)[nH]c(=O)n2C
104

Name the recorded nuclei count of the compound listed here: COC(=O)c1cccc(NC(=O)Cc2coc3cc(OC)ccc23)c1
120

Name the recorded nuclei count of the compound listed here: CC1=C(C(=O)OC2CCCC2)C(c2ccc(C)o2)C2=C(CC(c3cccs3)CC2=O)N1 (stereo unspecified)
99

Name the recorded nuclei count of the compound listed here: Cc1cccc(NC(=O)CSc2nnc(-c3cc(C)n(-c4ccccc4)c3C)o2)c1C
111

Name the recorded nuclei count of the compound listed here: c1ccc(Cn2nnc3c(N4CCCCCC4)ncnc32)cc1
95.6

Name the recorded nuclei count of the compound listed here: Cc1cccc(Cc2nnc(NC(=O)c3cccc(S(=O)(=O)N4CCOCC4)c3)s2)c1
126

Name the recorded nuclei count of the compound listed here: CC(=O)NC(CCS(C)(=O)=O)C(=O)Nc1cccc(C)c1C (stereo unspecified)
117

Name the recorded nuclei count of the compound listed here: Cc1cc(=O)n2nc(N3CCCC(C(=O)N4CCN(C)CC4)C3)sc2n1 (stereo unspecified)
126

Name the recorded nuclei count of the compound listed here: Cn1c(SCC(=O)Nc2ccc3c(c2)oc2ccccc23)nnc1-c1ccccc1
109

Name the recorded nuclei count of the compound listed here: COCCCNC(=O)CSc1ccc(Cl)cc1
80
